measuredTarget: Recombinant human JAK1 (catalytic domain, amino acids 866-1154) (Homo sapiens)
Construct: catalytic domain, amino acids 866-1154
Sequence (P23458 866-1154): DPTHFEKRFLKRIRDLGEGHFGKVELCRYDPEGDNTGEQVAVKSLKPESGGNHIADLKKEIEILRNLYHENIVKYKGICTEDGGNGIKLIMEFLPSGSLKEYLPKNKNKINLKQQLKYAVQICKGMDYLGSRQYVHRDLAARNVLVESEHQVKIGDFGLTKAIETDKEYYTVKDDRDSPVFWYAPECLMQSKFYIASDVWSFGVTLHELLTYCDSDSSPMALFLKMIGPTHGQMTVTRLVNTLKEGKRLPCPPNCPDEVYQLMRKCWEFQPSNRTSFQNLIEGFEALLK
assay: JAK1 inhibition assay
measurementContext: read-out: JAK1 potency IC50
Procedure: After 60 min at room temperature, reactions are stopped by adding 20 μL/well of detection mixture (1× detection buffer (Perkin Elmer, catalog number CR97-100), 0.5 nM Europium-anti-phosphotyrosine (PT66) (Perkin Elmer, catalog number AD0068/AD0069), 10 mM EDTA). […] Kinase activity is calculated by subtracting the ratio obtained in the presence of a positive control inhibitor (1 μM staurosporine) from the ratio obtained in the presence of vehicle. […]
Counter-ions that a name gives are not always drawn.
Please respond with reported log10(IC50) for every item in the list.
The base-10 logarithm of IC50, taken with IC50 in nM, is what appears here.

[ask] So what's the measured log10(IC50) for this one? "COCCCS(=O)(=O)c1ccc(Nc2cc(Oc3cnc(C#N)cc3C)nc3c2ncn3C)cc1"
[reply] 2.01

[ask] So what's the measured log10(IC50) for this one? "CC(C)[C@@H](Nc1cc(Nc2cc(N)ncn2)c2ncn(C)c2n1)C(F)(F)F"
[reply] 1.45

[ask] So what's the measured log10(IC50) for this one? "Cc1cc(C#N)ncc1Oc1cc(Nc2ccc(S(=O)(=O)N3CCOCC3)cc2)c2ncn(C)c2n1"
[reply] 2.01

[ask] So what's the measured log10(IC50) for this one? "COc1ccc(Nc2cc(Oc3cnc(C#N)cc3C)nc3c2ncn3C)nc1"
[reply] 1.76

[ask] So what's the measured log10(IC50) for this one? "Cc1cc(C#N)ncc1Oc1cc(Nc2ccc(S(=O)(=O)C3CC3)cc2)c2ncn(C)c2n1"
[reply] 1.79

[ask] So what's the measured log10(IC50) for this one? Cc1cc(C#N)ncc1Oc1cc(Nc2ccc(C(N(C)C)C(F)(F)F)cn2)c2ncn(C)c2n1 (centres unmarked)
[reply] 1.27

[ask] So what's the measured log10(IC50) for this one? "Cc1cc(C#N)ncc1Oc1cc(Nc2ccc(N3CCC(CO)CC3)cn2)c2ncn(C)c2n1"
[reply] 1.77

[ask] So what's the measured log10(IC50) for this one? "Cc1cc(C(F)(F)F)ncc1Oc1cc(Nc2cc(N)ncn2)c2ncn(C)c2n1"
[reply] 2.18

[ask] So what's the measured log10(IC50) for this one? "C[C@H](N(C)c1cc(Nc2cc(N)ncn2)c2ncn(C)c2n1)C(C)(C)C"
[reply] 1.43

[ask] So what's the measured log10(IC50) for this one? Cc1cc(C#N)ncc1Oc1cc(Nc2ccc(CN(C)C)cn2)c2ncn(C)c2n1 [Compound 81, formate salt]
[reply] 2.18

[ask] So what's the measured log10(IC50) for this one? "COCCNc1cc(Nc2cc(Oc3cnc(C#N)cc3C)nc3c2ncn3C)ncn1"
[reply] 2.27

[ask] So what's the measured log10(IC50) for this one? "Cc1cc(C#N)ncc1Oc1cc(Nc2ccc(N(C)C)cn2)c2ncn(C)c2n1"
[reply] 1.97

[ask] So what's the measured log10(IC50) for this one? "Cc1cc(C#N)ncc1Oc1cc(Nc2ccc(C3(O)COC3)cc2)c2ncn(C)c2n1"
[reply] 1.85

[ask] So what's the measured log10(IC50) for this one? "C[C@H](C1CC1)N(C)c1cc(Nc2cc(N)ncn2)c2ncn(C)c2n1"
[reply] 1.85

[ask] So what's the measured log10(IC50) for this one? "CCNC(=O)c1ccc(Nc2cc(Oc3cnc(C#N)cc3C)nc3c2ncn3C)nn1"
[reply] 2.37

[ask] So what's the measured log10(IC50) for this one? CC(C)C(Nc1cc(Nc2ccc(S(C)(=O)=O)cn2)c2ncn(C)c2n1)C(F)(F)F (centres unmarked)
[reply] 1.84

[ask] So what's the measured log10(IC50) for this one? "COC1CN(C(=O)c2ccc(Nc3cc(Oc4cnc(C#N)cc4C)nc4c3ncn4C)nn2)C1"
[reply] 2.18

====

Please respond with reported log10(IC50) for every item in the list.
measuredTarget: Recombinant human TYK2 catalytic domain (amino acids 871-1187) (Homo sapiens)
Construct: catalytic domain (amino acids 871-1187)
Sequence (P29597 871-1187): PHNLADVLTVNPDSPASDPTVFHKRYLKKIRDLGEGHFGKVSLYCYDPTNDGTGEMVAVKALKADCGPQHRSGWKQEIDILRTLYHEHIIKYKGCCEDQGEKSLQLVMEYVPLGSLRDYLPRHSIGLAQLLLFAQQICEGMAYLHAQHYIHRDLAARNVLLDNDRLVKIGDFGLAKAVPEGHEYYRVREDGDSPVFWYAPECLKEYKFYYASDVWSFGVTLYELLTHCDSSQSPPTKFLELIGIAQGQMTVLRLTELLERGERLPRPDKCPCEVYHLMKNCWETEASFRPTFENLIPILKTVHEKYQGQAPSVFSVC
assay: TYK2 radioactive assay polyGT substrate; further: 0.1 µM ATP
Assay type: biochemical
The base-10 logarithm of IC50, taken with IC50 in nM, is what appears here.

[ask] So what's the measured log10(IC50) for this one? Cn1cnc2c(Nc3ccc(S(C)(=O)=O)cn3)cc(OC(C3CC3)C(F)(F)F)nc21 (stereo not shown)
[reply] 0.49

[ask] So what's the measured log10(IC50) for this one? Cc1cc(C#N)ncc1Oc1cc(Nc2ccc(C(=O)N3C[C@@H](O)[C@H](F)C3)cn2)c2ncn(C)c2n1 (racemic)
[reply] 0.46

[ask] So what's the measured log10(IC50) for this one? Cc1cc(C#N)ncc1Oc1cc(Nc2ccc(C(=O)N3C[C@@H](C)O[C@H](C)C3)cn2)c2ncn(C)c2n1 (racemic)
[reply] 0.56

[ask] So what's the measured log10(IC50) for this one? CC(Nc1cc(Nc2cc(N)ncn2)c2ncn(C)c2n1)C1CCC1 (stereo not shown)
[reply] 1.49

[ask] So what's the measured log10(IC50) for this one? "Cc1cc(C#N)ncc1Oc1cc(Nc2ccc(C(=O)N3CC(C)(O)C3)cn2)c2ncn(C)c2n1"
[reply] 0.41

[ask] So what's the measured log10(IC50) for this one? "Cc1cc(C#N)ncc1Nc1cc(Nc2ccc(C(=O)N(C)C)cc2)c2ncn(C)c2n1"
[reply] 1.07

[ask] So what's the measured log10(IC50) for this one? "Cc1cc(C#N)ncc1Oc1cc(Nc2cc(NCCC(C)(C)O)ncn2)c2ncn(C)c2n1"
[reply] 0.47

[ask] So what's the measured log10(IC50) for this one? "CCc1cc(C#N)ncc1Oc1cc(Nc2ccc(C(=O)N3CCOCC3)cn2)c2ncn(C)c2n1"
[reply] -0.23

[ask] So what's the measured log10(IC50) for this one? COC1CC(Nc2cc(Nc3cc(Oc4cnc(C#N)cc4C)nc4c3ncn4C)ncn2)C1 (stereo not shown)
[reply] 0.15

[ask] So what's the measured log10(IC50) for this one? "Cc1cc(C#N)ncc1Oc1cc(Nc2ccc(N(C)C)cn2)c2ncn(C)c2n1"
[reply] 1.23

[ask] So what's the measured log10(IC50) for this one? CC(Oc1cc(Nc2cc(N)ncn2)c2ncn(C)c2n1)C1CC1 (stereo not shown)
[reply] 0.15

[ask] So what's the measured log10(IC50) for this one? Cc1cc(C#N)ncc1Oc1cc(Nc2ccc(C(=O)NCC(C)O)nc2)c2ncn(C)c2n1 (stereo not shown)
[reply] 1.75

[ask] So what's the measured log10(IC50) for this one? "Cc1cc(C#N)ncc1Oc1cc(Nc2ccc(C(=O)N3CCOC[C@@H]3C)cn2)c2ncn(C)c2n1"
[reply] 0.22

[ask] So what's the measured log10(IC50) for this one? "Cc1cc(C#N)ncc1Oc1cc(Nc2ccc(C(=O)NCCCO)cn2)c2ncn(C)c2n1"
[reply] 0.97

[ask] So what's the measured log10(IC50) for this one? "Cc1cc(C#N)ncc1Oc1cc(Nc2ccc(C(=O)N3CC(C(C)(C)O)C3)nn2)c2ncn(C)c2n1"
[reply] 0.74

[ask] So what's the measured log10(IC50) for this one? "Cc1cc(C#N)ncc1Oc1cc(Nc2ccc(C(=O)N3CC(C(=O)OC(C)(C)C)C3)cn2)c2ncn(C)c2n1"
[reply] 0.48

====

Please respond with reported pIC50 for every item in the list.
measuredTarget: Recombinant human JAK3 catalytic domain (amino acids 781-1124) (Homo sapiens, UniProt P52333)
Sequence (P52333 781-1124): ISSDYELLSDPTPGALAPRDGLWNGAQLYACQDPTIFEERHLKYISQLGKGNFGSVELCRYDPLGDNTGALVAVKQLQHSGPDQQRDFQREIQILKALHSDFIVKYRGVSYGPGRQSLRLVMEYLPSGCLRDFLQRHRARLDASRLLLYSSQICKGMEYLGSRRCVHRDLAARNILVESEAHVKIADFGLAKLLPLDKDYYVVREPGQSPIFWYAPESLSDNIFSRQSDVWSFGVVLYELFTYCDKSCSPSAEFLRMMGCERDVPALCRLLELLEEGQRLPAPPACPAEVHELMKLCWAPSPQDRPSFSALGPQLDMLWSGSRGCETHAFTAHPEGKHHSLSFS
assay: JAK3 inhibition assay
Assay type: biochemical
Counter-ions that a name gives are not always drawn.
# pIC50: negative log10 of molar concentration; output just the value

[ask] So what's the measured pIC50 for this one? CC(C)C(Nc1cc(Nc2cc(N)ncn2)c2ncn(C)c2n1)C(F)(F)F (centres unmarked)
[reply] 7.11

[ask] So what's the measured pIC50 for this one? Cc1cc(C#N)ncc1Oc1cc(Nc2ccc(CN(C)C)cn2)c2ncn(C)c2n1 [Compound 81, formate salt]
[reply] 6.41

[ask] So what's the measured pIC50 for this one? "Cc1cc(C#N)ncc1Oc1cc(Nc2ccc(S(=O)(=O)C3CC3)cc2)c2ncn(C)c2n1"
[reply] 5.88

[ask] So what's the measured pIC50 for this one? "COCCN(C)c1ccc(Nc2cc(Oc3cnc(C#N)cc3C)nc3c2ncn3C)nc1"
[reply] 6.25

[ask] So what's the measured pIC50 for this one? "Cc1cc(C#N)ncc1Oc1cc(Nc2ccc(C3CCOCC3)cn2)c2ncn(C)c2n1"
[reply] 6.01

[ask] So what's the measured pIC50 for this one? "CC(C)[C@@H](Nc1cc(Nc2cc(N)ncn2)c2ncn(C)c2n1)C(F)(F)F"
[reply] 7.32

[ask] So what's the measured pIC50 for this one? Cn1cnc2c(Nc3ccc(S(C)(=O)=O)cn3)cc(NC(C3CC3)C(F)(F)F)nc21 (centres unmarked)
[reply] 7.89

[ask] So what's the measured pIC50 for this one? "COC1CN(C(=O)c2ccc(Nc3cc(Oc4cnc(C#N)cc4C)nc4c3ncn4C)nn2)C1"
[reply] 5.92

Hello, the source for this data is patent US11564923B2, in case you need it.
